tgt: T1, CTNI quality control recombinant protein (PK2-CTNI-1, 170120, produced by the applicant) (human, UniProt P19429 2-210, limits assumed)
T1 construct: also called cardiac troponin I
testProtocol: indirect ELISA, cTnI coated 1 ug/ml, antibody 1000 ug/ml
Description: The cTnI quality control after diluted to 1 μg/ml with the coating solution was used for microplate coating at 100 uL per well and left at 4° C. overnight. The next day, the microplate was washed twice with the wash solution and tapped for drying. The blocking solution (20% BSA+80% PBS) was added at 120 μL per well and left for 1 h at 37° C., and the microplate was tapped for drying. […] The OD value was read out at 450 nm (reference at 630 nm) on the microplate reader.
measuredMetric: OD 450 nm (reference 630 nm) (OD)
Answer with a number only, understood to be in OD.

Reference set (3 entries):
If you can, please state the reported OD 450 nm (reference 630 nm) value of Mutation 4 (antibody, V domains shown, built as for Mutation 1) VH: EVQLQQSGAELVKPGASVKLSCTASGFNLKDYFMHWMKQRTEQGLDWIGRIEPEDAETRYAPEFQGKATITADTSSNTAYLQLSTLTSEDTAVYYCARYYSSYIPFVYWGQGTLVTASA VL: DVVMTQTPLSLSVSLGDQASISCRSSQSIIYSNKHTYLHWYLQKPGQSPKLLIFQISNRFSGVPDRFSGSGSGTDFTLKINRVEAEDLGVYFCSNSTHLPFTFGSGTKLEIKR . 2.22

If you can, please state the reported OD 450 nm (reference 630 nm) value of Mutation 3 (antibody, V domains shown, built as for Mutation 1) VH: EVQLQQSGAELVKPGASVKLSCTASGFNLKEYFMHWMKQRTEQGLDWIGRIDPEDAETRYAPEFQGKATITADTSSNTAYLQLSTLTSEDTAVYYCARYYTSYIPFVYWGQGTLVTASA VL: DVVMTQTPLSLSVSLGDQASISCRSSQSIIYSNRHTYLHWYLQKPGQSPKLLIFQISQRFSGVPDRFSGSGSGTDFTLKINRVEAEDLGVYFCSQSTHLPFTFGSGTKLEIKR . 2.35

If you can, please state the reported OD 450 nm (reference 630 nm) value of Mutation 2 (antibody, V domains shown, built as for Mutation 1) VH: EVQLQQSGAELVKPGASVKLSCTASGFNLKEYFMHWMKQRTEQGLDWIGRIDPEDAETRYAPEFQGKATITADTSSNTAYLQLSTLTSEDTAVYYCARYYTSYIPFVYWGQGTLVTASA VL: DVVMTQTPLSLSVSLGDQASISCRSSQSIIYSNRHTYLHWYLQKPGQSPKLLIFQISNRFSGVPDRFSGSGSGTDFTLKINRVEAEDLGVYFCSQSTHLPFTFGSGTKLEIKR . 2.38

Here is another binder to look at.
If you can, please state the reported OD 450 nm (reference 630 nm) value of Mutation 1 (antibody, V domains shown, No residue numbers are printed, so each chain is built as FR1-CDR1-FR2-CDR2-FR3-CDR3-FR4-constant) VH: EVQLQQSGAELVKPGASVKLSCTASGFNLKDYFMHWMKQRTEQGLDWIGRIDPEDAETRYAPEFQGKATITADTSSNTAYLQLSTLTSEDTAVYYCARYYSSYIPFVYWGQGTLVTASA VL: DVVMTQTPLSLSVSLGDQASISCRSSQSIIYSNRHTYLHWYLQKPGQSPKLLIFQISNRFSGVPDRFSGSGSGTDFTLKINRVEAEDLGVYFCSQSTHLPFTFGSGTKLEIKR . 2.4

Reference source: patent US20210340231A1
